// data source = ChEMBL document CHEMBL1144471

target: Adenosine receptor A2a (Homo sapiens); assay: Displacement of [3H]CGS-21680 from human adenosine A2A receptor expressed in CHO cells at 10 uM; type: cell-based
Sequence (P29274 whole entry): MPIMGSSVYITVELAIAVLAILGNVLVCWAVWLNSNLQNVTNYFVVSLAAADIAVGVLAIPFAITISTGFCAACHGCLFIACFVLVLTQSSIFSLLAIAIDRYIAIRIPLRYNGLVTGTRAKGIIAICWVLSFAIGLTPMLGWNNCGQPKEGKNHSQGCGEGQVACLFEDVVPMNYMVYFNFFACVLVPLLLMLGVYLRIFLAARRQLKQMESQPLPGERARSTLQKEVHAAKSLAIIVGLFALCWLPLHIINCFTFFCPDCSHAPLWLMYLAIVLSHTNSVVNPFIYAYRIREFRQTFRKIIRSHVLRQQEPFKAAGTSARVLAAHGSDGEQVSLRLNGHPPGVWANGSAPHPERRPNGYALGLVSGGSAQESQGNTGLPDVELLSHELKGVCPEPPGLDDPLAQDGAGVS
property_name: inhibition (%)
Field format: number, assumed %, no unit text.

Field: example entries. Status: answers known.
Query block: Can you look up the measured inhibition of "COc1ccc2[nH]c(C)c(CCOc3nc(N)c4ncn([C@@H]5O[C@H](CO)[C@@H](O)[C@H]5O)c4n3)c2c1" for me?
Result block: 64

Query block: Can you look up the measured inhibition of "COc1ccc2c(c1)c(CCOc1nc(N)c3ncn([C@@H]4O[C@H](CO)[C@@H](O)[C@H]4O)c3n1)c(C)n2S(=O)(=O)c1ccc(C)cc1" for me?
Result block: 26

Query block: Can you look up the measured inhibition of "CCNc1nc(OCCc2c[nH]c3ccccc23)nc2c1ncn2[C@@H]1O[C@H](CO)[C@@H](O)[C@H]1O" for me?
Result block: 40

Query block: Can you look up the measured inhibition of "Nc1nc(OCCn2nnc3ccccc32)nc2c1ncn2[C@@H]1O[C@H](CO)[C@@H](O)[C@H]1O" for me?
Result block: 46

We now examine a further compound.
Query block: Can you look up the measured inhibition of "Cc1ccc(S(=O)(=O)n2cc(CCOc3nc(N)c4ncn([C@@H]5O[C@H](CO)[C@@H](O)[C@H]5O)c4n3)c3cc(Br)ccc32)cc1" for me?
Result block: 54

----------
Target: Adenosine receptor A3 (Homo sapiens)
Sequence (whole entry): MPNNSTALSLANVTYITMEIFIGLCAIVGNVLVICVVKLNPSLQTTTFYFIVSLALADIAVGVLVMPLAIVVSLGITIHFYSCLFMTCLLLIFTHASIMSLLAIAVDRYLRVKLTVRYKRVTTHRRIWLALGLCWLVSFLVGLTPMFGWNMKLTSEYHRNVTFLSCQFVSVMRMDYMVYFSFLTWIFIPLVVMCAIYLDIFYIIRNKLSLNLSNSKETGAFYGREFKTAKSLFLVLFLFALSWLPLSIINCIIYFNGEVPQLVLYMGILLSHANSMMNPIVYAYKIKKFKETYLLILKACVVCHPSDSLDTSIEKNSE
Assay: Maximum efficacy at human recombinant adenosine A3 receptor expressed in CHO cells assessed as inhibition of cAMP production at 10 uM relative to NECA
Assay type: functional, cell-based
Here the recorded Efficacy is given for each entry.
Field format: number, assumed %, no unit text.

Field: example entries. Status: answers known.
Query block: Can you look up the measured Efficacy of "Nc1nc(OCCc2c[nH]c3cc(Cl)ccc23)nc2c1ncn2[C@@H]1O[C@H](CO)[C@@H](O)[C@H]1O" for me?
Result block: 2

Query block: Can you look up the measured Efficacy of "Nc1nc(OCCc2c[nH]c3ccc(Br)cc23)nc2c1ncn2[C@@H]1O[C@H](CO)[C@@H](O)[C@H]1O" for me?
Result block: 1

Query block: Can you look up the measured Efficacy of "COc1ccc2[nH]c(C)c(CCOc3nc(N)c4ncn([C@@H]5O[C@H](CO)[C@@H](O)[C@H]5O)c4n3)c2c1" for me?
Result block: 13

We now examine a further molecule.
Query block: Can you look up the measured Efficacy of "Cc1ccc(S(=O)(=O)n2c(CCOc3nc(N)c4ncn([C@@H]5O[C@H](CO)[C@@H](O)[C@H]5O)c4n3)cc3ccccc32)cc1" for me?
Result block: 30
